Tested on: A549
Protocol Summary: Antiproliferative activity against human A549 cells incubated for 48 hrs by MTT assay
Format: functional, cell-based
Assay Context: A549, 48 h
Recorded Metric: IC50 (nM)
State just the number; it will be interpreted in nM.

Record excerpt, results attached:
>>> measured_result("COc1ccc(N(C)c2ccnc(Cl)n2)cc1F")
651
>>> measured_result("COc1ccc(N(C)c2ccnc(Cl)n2)cc1OCCC[Se]C#N")
3710

Exam item: Hello, I am looking for reported IC50 with A549 for `COc1ccc(N(C)c2cc(C)nc(C)n2)cc1F` . Could you help?
Marked response: 632

Exam item: Hello, I am looking for reported IC50 with A549 for `COc1ccc(N(C)c2ccnc(Cl)n2)cc1OCCBr` . Could you help?
Marked response: 4640

Exam item: Hello, I am looking for reported IC50 with A549 for `COc1ccc(N(C)c2cc(C)nc(C)n2)cc1O` . Could you help?
Marked response: 113

Exam item: Hello, I am looking for reported IC50 with A549 for `COc1ccc(N(C)c2ccnc(Cl)n2)cc1[N+](=O)[O-]` . Could you help?
Marked response: 3780

Exam item: Hello, I am looking for reported IC50 with A549 for `COc1ccc(N(C)c2cc(C)nc(C)n2)cc1[N+](=O)[O-]` . Could you help?
Marked response: 3270

====

System: A549
Protocol Summary: Antiproliferative activity against human A549 cells incubated for 48 hrs by MTT assay
Assay type: functional, cell-based
Assay Context: A549, 48 h
Recorded Metric: IC50 (nM)
State just the number; it will be interpreted in nM.

Record excerpt, results attached:
>>> measured_result("COc1ccc(N(C)c2ccnc(Cl)n2)cc1OCCCCBr")
591
>>> measured_result("Cc1cc(N(C)c2ccc([Se]C#N)cc2)nc(C)n1")
207
>>> measured_result("COc1ccc(N(C)c2ccnc(Cl)n2)cc1Cl")
621
>>> measured_result("C[Se]c1ccc(N(C)c2cc(C)nc(C)n2)cc1")
218
>>> measured_result("COc1ccc(N(C)c2cc(C)nc(C)n2)cc1Cl")
780

Now look at this entry.
Exam item: Data request, read-out IC50, for COc1ccc(N(C)c2nc(C)nc3ccccc23)cc1 [VERUBULIN]
Marked response: 4

====

Tested on: HCT-116
Protocol Summary: Antiproliferative activity against human HCT116 cells incubated for 48 hrs by MTT assay
Assay type: functional, cell-based
Assay Context: HCT-116, 48 h
Recorded Metric: log10(IC50) (log10 of the value in nM)
The common logarithm of IC50 in nM is what is listed.

Exam item: Data request, read-out log10(IC50), for `COc1ccc(N(C)c2cc(C)nc(C)n2)cc1Cl`
Marked response: 3.08

====

Quick reference: IC50 of the listed items.
Tested on: A549
Protocol Summary: Antiproliferative activity against human A549 cells incubated for 48 hrs by MTT assay
Type: functional, cell-based
Assay Context: A549, 48 h
State just the number; it will be interpreted in nM.

>>> measured_result("COc1ccc(N(C)c2ccnc(Cl)n2)cc1")
611

Now look at this entry.
Exam item: Data request, read-out IC50, for `COc1ccc(N(C)c2cc(C)nc(C)n2)cc1`
Marked response: 277

====

Tested on: HCT-116
Protocol Summary: Antiproliferative activity against human HCT116 cells incubated for 48 hrs by MTT assay
Format: functional, cell-based
Assay Context: HCT-116, 48 h
Quick reference: log10(IC50) of the listed items.
The common logarithm of IC50 in nM is what is listed.

Record excerpt, results attached:
>>> measured_result("C[Se]c1ccc(N(C)c2cc(C)nc(C)n2)cc1")
2.67
>>> measured_result("COc1ccc(N(C)c2ccnc(Cl)n2)cc1OCC[Se]C#N")
3.09
>>> measured_result("COc1ccc(N(C)c2ccnc(Cl)n2)cc1[N+](=O)[O-]")
3.67
>>> measured_result("COc1ccc(N(C)c2ccnc(Cl)n2)cc1OCCBr")
3.75
>>> measured_result("Cc1cc(N(C)c2ccc([Se]C#N)cc2)nc(C)n1")
2.39
>>> measured_result("COc1ccc(N(C)c2ccnc(Cl)n2)cc1Cl")
3.07

Now look at this entry.
Exam item: Data request, read-out log10(IC50), for `COc1ccc(N(C)c2ccnc(Cl)n2)cc1`
Marked response: 3.16
